measurement_kind: melting point

As a guide, the following entries are already answered.
O=c1[nH]cc(Oc2ccc(Cl)cc2)c(=O)[nH]1 [Compound 5c, 5-(4-Chlorophenoxy)uracil] | 331 to 333 °C
O=c1[nH]cc(N2CCc3ccccc3C2)c(=O)[nH]1 | 311 to 312 °C
CC(C)(C)c1ccc(Nc2c[nH]c(=O)[nH]c2=O)cc1 [Compound 2e, 5-((4′-tert-Butylphenyl)amino)uracil] | 354.5 to 356.5 °C
Cc1cc(C)cc(Oc2c[nH]c(=O)[nH]c2=O)c1 [Compound 5a, 5-(3,5-Dimethylphenoxy)uracil] | 293 to 295 °C
CCCCCCc1ccc(Nc2c[nH]c(=O)[nH]c2=O)cc1 [Compound 2d, 5-((4′-Hexylphenyl)amino)uracil] | 332 to 333 °C

So what's the measured melting point for this one? CCCCOc1ccc(Oc2c[nH]c(=O)[nH]c2=O)cc1 [Compound 5b, 5-(4-Butoxyphenoxy)uracil] 271 to 274 °C

So what's the measured melting point for this one? O=c1[nH]cc(N2CCN(c3ccccc3)CC2)c(=O)[nH]1 [Compound 2b, 5-(4-Phenylpiperazin-1-yl)uracil] 352 to 354.5 °C

So what's the measured melting point for this one? CC(C)(C)c1ccc(Oc2c[nH]c(=O)[nH]c2=O)cc1 [Compound 5d, 5-(4-tert-Butylphenoxy)uracil] 273 to 275 °C

---

- Test system: HCoV-OC43
- assay_explanation: Antiviral cytopathicity assay, HCoV-OC43 in HEL 299 cells
- Type: cell-based
- test_settings: Betacoronavirus 1, OC43, HEL 299, read-out: EC50 (μM) HCoV-OC43, HEL 299
measurement_kind: EC50

As a guide, the following entries are already answered.
O=c1[nH]c(=O)n(C2C=CC(O)C2)cc1N1CCN(c2ccccc2)CC1 (racemic) [(±)-3b] | > 100 µM
O=c1[nH]c(=O)n(C2C=CC(O)C2)cc1N1CCCCCC1 (racemic) [(±)-3a] | > 100 µM
O=c1c(N2CCCCCC2)cn(C2C=CC(O)C2)c(=O)n1C1C=CC(O)C1 (racemic) [(±)-4a] | > 100 µM

So what's the measured EC50 for this one? CCCCCCCc1ccc(Nc2cn(C3C=CC(O)C3)c(=O)[nH]c2=O)cc1 (racemic) [(±)-3f] 22.4 µM

So what's the measured EC50 for this one? CC(C)(C)c1ccc(Oc2cn(C3C=CC(O)C3)c(=O)n(C3C=CC(O)C3)c2=O)cc1 (racemic) [(±)-11d] > 100 µM

So what's the measured EC50 for this one? CCCCCCc1ccc(Nc2cn(C3C=CC(O)C3)c(=O)[nH]c2=O)cc1 (racemic) [(±)-3d] > 100 µM

So what's the measured EC50 for this one? O=c1c(N2CCN(c3ccccc3)CC2)cn(C2C=CC(O)C2)c(=O)n1C1C=CC(O)C1 (racemic) [(±)-4b] > 100 µM

So what's the measured EC50 for this one? O=c1c(Oc2ccc(Cl)cc2)cn(C2C=CC(O)C2)c(=O)n1C1C=CC(O)C1 (racemic) [(±)-11c] > 100 µM

---

- Tested on: human cytomegalovirus (HCMV) strain AD-169
- assay_explanation: microbe, parasite or virus in culture
- Type: cell-based
- test_settings: Human betaherpesvirus 5, AD169, HEL, read-out: EC50, formation of viral plaques, cytomegalovirus strain AD169
measurement_kind: pEC50
FYI, pEC50 means -log10 of a concentration in mol per litre.

So what's the measured pEC50 for this one? CC(C)(C)c1ccc(Nc2cn(C3C=CC(O)C3)c(=O)n(C3C=CC(O)C3)c2=O)cc1 (racemic) [(±)-4e] 4.12
